Origin of the recorded values: the supplement of paper PMC7125110

Measured self-cleavage kobs at 640 uM GlcN6P accompanies every entry in the list below.
B1: glmS ribozyme (parent)
chain: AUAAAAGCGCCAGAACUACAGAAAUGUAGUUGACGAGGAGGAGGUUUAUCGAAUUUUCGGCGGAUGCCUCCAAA

variants of: B1; experiment: self-cleavage kobs at 640 uM GlcN6P; higher = faster cleavage; RNA array; conditions: with glucosamine-6-phosphate
This sample holds only a part of the variants without activity.

U31C G41A A48U C67G    < 1e-05 s⁻¹
G43C U47A    < 1e-05 s⁻¹
G13C G35A    < 1e-05 s⁻¹

Returns the measured self-cleavage kobs at 640 uM GlcN6P for the input variant. Input: A52G U69G
0.000113 s⁻¹

Thanks! And A53U G62U ?
< 1e-05 s⁻¹

Thanks! And G29U G32U G44C U65C ?
< 1e-05 s⁻¹

Thanks! And G40C C61G ?
< 1e-05 s⁻¹

Thanks! And C10A A14C U45C C68U ?
< 1e-05 s⁻¹

Thanks! And G38C A39G ?
< 1e-05 s⁻¹

Thanks! And U56G U57G U65C ?
< 1e-05 s⁻¹

Thanks! And A12U C34A ?
< 1e-05 s⁻¹

Thanks! And G40C U56C A64C C70A ?
< 1e-05 s⁻¹

Thanks! And C10G C11A U31C G35C C70G ?
0.00013 s⁻¹
